assay_notes: CD spectroscopy, helicity
Type: physicochemical
Design: key: mean residue molar ellipticity, mdeg cm2/(dmol × res)
condition: difference to PBS; bacterial membrane mimicking liposomes
Where no end group is shown, it is not given here.
Recorded measurements of Δ[θ]222 induced by Liposomes, one per entry

KWAKKWWKWWKK-NH2 [6e] = -5213
Ac-KWIKKWIKWWKK-NH2 [7d] = -15929

[Q] State the recorded Δ[θ]222 induced by Liposomes for this entry: RWLRRWLRWWRR-NH2 [8a]
[A] -10822

* * *

System: human red blood cells (hRBCs)
assay_notes: Hemolytic assay
Format: cell-based
condition: value in parentheses (μM); hRBC 4% in PBS, 2 h, 37 °C, 567 nm
Where no end group is shown, it is not given here.
Doc: threshold 50 µM (exclusive). Items with HC50 (concentration at which 50% hemolysis was observed) beneath it return YES; others return NO.

Consider the worked cases shown below.
RWIRRWIRWWRR-NH2 [7a] = YES
H-RAWRRWWARA-NH2 [4g] = NO

[Q] Given the entry RWIRRWIRWWR-NH2 [5c] , would its reported HC50 (concentration at which 50% hemolysis was observed) be below 50 µM?
[A] NO

[Q] Cool, now KWAKKWWKWWKK-NH2 [6e]
[A] NO

[Q] Cool, now H-RAWRRAWRAW-NH2 [4a]
[A] NO

[Q] Cool, now H-AAWRRWWRRA-NH2 [4h]
[A] NO

[Q] Cool, now RWRRWWR-NH2 [1a]
[A] NO

Every entry's value here was drawn from paper PMC9841524.
